meta.source: PubChem BioAssay (NCI)

System: HOP-92 NSCLC
experimental.details: NCI tumour cell line growth inhibition, 48 h
Measured TGI, listed per entry for reference.

{"columns": ["molecule", "endpoint.result"],
 "data": [
  ["O=C(O)c1c2c(c(O)c3c1CN(C1CCCCC1)CO3)OCN(C1CCCCC1)C2", "> 100 µM"]
]}

Fill in TGI for COc1ccccc1C1C(C#N)=C(N)SC(N)=C1C#N tested with HOP-92 NSCLC.
> 100 µM

// output TGI; input C/C(=N/NC(=S)N1CCCCCC1)c1cccc(/C(C)=N\NC(=S)N2CCCCCC2)n1 ; system HOP-92 NSCLC
3.58 µM

With HOP-92 NSCLC as the test system, provide measured TGI for this molecule: CCO/C(O)=c1/s/c(=C2/SC(=S)N(c3ccc(C)cc3)C2=O)n(-c2ccccc2)c1=N
> 100 µM

Find the measured TGI of CC(C)(C)OC(=O)C1C(=O)NC(=O)CC1C(OCc1ccccc1)C(OCc1ccccc1)C(COCc1ccccc1)OCc1ccccc1 (stereo unspecified) with HOP-92 NSCLC as test system.
> 100 µM

State recorded TGI with HOP-92 NSCLC, entry NC(=O)N/N=C(\Cc1cc(=O)oc2cc(O)ccc12)C(=O)Nc1ccccc1C(N)=O , no comment.
> 100 µM

Write down the reported TGI (system: HOP-92 NSCLC) of COC(=O)c1sc2nc(Nc3ccccc3)c(=Nc3ccccc3)sc2c1C
92 µM

Fill in TGI for NCCNCCNCc1c2ccccc2c(CNCCNCCN)c2ccccc12 tested with HOP-92 NSCLC.
84.1 µM

GET TGI | system: HOP-92 NSCLC | item: CCN(Cc1ccccc1)c1ccc(/C=C2\COc3ccccc3C2=O)cc1
> 1000 µM
